Exercise: for every item that follows, state its recorded pIC50.
tested.system: MAO-A (Homo sapiens)
Construct: purchased Sigma-Aldrich M7316
Sequence (P21397 1-527): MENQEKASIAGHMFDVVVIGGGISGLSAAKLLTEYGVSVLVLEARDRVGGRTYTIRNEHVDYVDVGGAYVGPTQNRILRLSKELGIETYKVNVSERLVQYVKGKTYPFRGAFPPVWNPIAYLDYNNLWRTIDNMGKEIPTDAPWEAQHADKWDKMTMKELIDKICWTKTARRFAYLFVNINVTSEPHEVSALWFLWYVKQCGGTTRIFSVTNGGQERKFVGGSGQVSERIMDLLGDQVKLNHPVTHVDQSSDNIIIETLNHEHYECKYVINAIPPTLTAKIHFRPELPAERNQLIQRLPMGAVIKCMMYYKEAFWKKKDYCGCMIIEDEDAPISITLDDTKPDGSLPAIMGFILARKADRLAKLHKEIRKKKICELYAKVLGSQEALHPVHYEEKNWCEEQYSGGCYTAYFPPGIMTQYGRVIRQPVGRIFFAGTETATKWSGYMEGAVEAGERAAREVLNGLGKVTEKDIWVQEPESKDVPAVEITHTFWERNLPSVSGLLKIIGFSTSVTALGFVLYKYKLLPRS
protocol.text: MAO-A biochemical assay (MAO-Glo)
stated.conditions: comparison table; read-out: IC50 MAO-A
One number for each entry, as −log10 of the molar value.

Some solved entries appear below for comparison.
{"compound": "NC/C(=C/F)COc1ccc(S(=O)(=O)N2CC[C@H](O)C2)cc1 [Reference compound B, reference compound]", "numeric.result": 5.14}
{"compound": "NC/C(=C/F)COc1cnc(N2CC[C@H](O)C2)nc1 [Z isomer of example 6 of WO 2018/027892, reference compound]", "numeric.result": 4.25}

Would you mind giving pIC50 for every compound in the list below?
1. COC1CN(S(=O)(=O)c2ccc(OC/C(=C\F)CN)nc2)C1
2. NC/C(=C/F)COc1ccc(S(=O)(=O)N2CC[C@H](O)C2)cn1
3. NC/C(=C/F)COc1cnc(N2CCC(O)CC2)nc1 [reference compound]
4. COC1CN(S(=O)(=O)c2ccc(OC/C(=C\F)CN)cc2)C1 [Reference compound A, reference compound]

Data returned:
[4.39, 4.31, 4.26, 5.63]

* * *

tested.system: MAO-A (Homo sapiens)
Construct: purchased Sigma-Aldrich M7316
Sequence (P21397 1-527): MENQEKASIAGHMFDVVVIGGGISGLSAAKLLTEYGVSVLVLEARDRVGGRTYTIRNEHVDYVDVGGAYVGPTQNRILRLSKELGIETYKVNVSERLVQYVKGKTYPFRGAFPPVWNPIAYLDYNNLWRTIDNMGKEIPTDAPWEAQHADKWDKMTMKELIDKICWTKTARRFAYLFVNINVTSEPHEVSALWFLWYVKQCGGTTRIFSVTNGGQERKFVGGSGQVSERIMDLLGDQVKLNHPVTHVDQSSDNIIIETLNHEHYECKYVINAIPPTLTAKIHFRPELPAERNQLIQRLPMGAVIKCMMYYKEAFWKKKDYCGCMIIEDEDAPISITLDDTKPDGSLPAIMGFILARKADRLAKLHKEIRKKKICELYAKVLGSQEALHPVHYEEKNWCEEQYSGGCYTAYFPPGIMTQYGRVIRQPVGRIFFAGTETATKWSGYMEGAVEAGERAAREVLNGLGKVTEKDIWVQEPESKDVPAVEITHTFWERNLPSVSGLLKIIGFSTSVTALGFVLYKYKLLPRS
protocol.text: MAO-A biochemical assay (MAO-Glo)
stated.conditions: IC50; read-out: MAO-A
pIC50: −log10 of the molar value.
readout.name: pIC50

{"smiles.input": "NC/C(=C/F)COc1ccc(S(=O)(=O)N2CCC(C(N)=O)CC2)cn1", "pIC50": "< 4.30"}
{"smiles.input": "CC(=O)N1CC(C2CCN(S(=O)(=O)c3ccc(OC/C(=C\\F)CN)nc3)CC2)C1", "pIC50": "< 4.30"}
{"smiles.input": "NC/C(=C/F)COc1ccc(S(=O)(=O)N2CCCCC2)cn1", "pIC50": 4.49}
{"smiles.input": "CCNC(=O)C1(C)CCN(S(=O)(=O)c2ccc(OC/C(=C\\F)CN)nc2)CC1", "pIC50": "< 4.30"}

# next compound below
Data request: Fill in the blank: the reported pIC50 of CNC(=O)[C@@H]1CCCN1S(=O)(=O)c1ccc(OC/C(=C\F)CN)nc1 is ____.
Data returned: < 4.30
